assay: wild-type E. coli BW25113 antibacterial activity – OD615, dose response (AID 638); settings: at 100 µM (top of the series) unless noted
Out of some 1,300 compounds screened, about 65 (5%) were called active. The list is a sample of the results. Potency and affinity values are given separately.
reported endpoint: growth inhibition (%)
Quick reminder: number only, in %, skip the unit.

Known growth inhibition results, listed for orientation:
compound: C(=C\c1ccccc1)/CN1CCN(c2ncnc3c2oc2ccccc23)CC1
unit tag: %
measured: -1.65

compound: CCn1c(=O)c(C(=O)Nn2c(C)nc3ccccc3c2=O)c(O)c2ccccc21
unit tag: %
measured: 2.63

The recorded growth inhibition for entry Cc1ccc(O)c(C(=O)CC(=O)c2cccc(F)c2)c1 equals 11.9

The values you see were collected from PubChem BioAssay AID638.
